Could you please report measured DC50 for the items listed next?
target: TYK2 (Homo sapiens, UniProt P29597); experiment: TYK2 degradation MSD assay in human PBMC cells; assay type: cell-based; set-up: endogenous in cells; host or cells: human PBMC; conditions: 4 to 24 hours incubation, read-out: TYK2 MSD DC50 rating in human PBMC
Sequence (P29597 whole entry): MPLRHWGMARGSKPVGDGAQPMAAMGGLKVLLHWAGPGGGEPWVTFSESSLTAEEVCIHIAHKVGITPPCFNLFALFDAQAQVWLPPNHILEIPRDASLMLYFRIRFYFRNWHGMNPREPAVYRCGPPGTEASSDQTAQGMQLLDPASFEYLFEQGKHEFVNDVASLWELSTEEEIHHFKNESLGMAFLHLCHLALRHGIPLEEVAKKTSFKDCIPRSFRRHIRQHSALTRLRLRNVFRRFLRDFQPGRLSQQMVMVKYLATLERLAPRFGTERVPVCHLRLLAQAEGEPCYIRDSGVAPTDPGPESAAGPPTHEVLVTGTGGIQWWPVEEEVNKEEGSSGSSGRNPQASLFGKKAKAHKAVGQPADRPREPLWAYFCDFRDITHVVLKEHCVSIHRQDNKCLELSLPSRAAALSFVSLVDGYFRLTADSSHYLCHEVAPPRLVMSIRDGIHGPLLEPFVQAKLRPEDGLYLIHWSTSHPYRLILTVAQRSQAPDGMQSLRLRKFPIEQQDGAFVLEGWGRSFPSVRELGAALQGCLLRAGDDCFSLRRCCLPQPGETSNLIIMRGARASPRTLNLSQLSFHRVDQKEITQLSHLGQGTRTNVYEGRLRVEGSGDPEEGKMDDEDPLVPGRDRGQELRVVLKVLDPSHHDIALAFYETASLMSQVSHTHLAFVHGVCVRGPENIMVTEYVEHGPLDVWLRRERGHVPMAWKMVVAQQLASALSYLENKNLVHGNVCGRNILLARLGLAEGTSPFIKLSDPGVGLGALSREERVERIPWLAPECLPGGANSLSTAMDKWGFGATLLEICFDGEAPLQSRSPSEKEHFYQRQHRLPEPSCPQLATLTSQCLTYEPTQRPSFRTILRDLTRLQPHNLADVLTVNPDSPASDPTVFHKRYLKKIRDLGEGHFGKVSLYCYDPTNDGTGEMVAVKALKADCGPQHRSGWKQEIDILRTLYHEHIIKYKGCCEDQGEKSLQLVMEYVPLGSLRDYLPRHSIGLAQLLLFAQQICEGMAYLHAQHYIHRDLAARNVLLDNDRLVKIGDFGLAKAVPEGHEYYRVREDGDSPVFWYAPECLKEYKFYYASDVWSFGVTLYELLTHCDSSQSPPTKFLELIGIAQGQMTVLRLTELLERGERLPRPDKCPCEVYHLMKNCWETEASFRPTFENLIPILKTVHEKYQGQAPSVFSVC

// worked examples, DC50 included
COMPOUND	DC50
CNc1cc(N2CCc3c(-c4ccc(CN5CCC6(CC5)CCN(c5ccc(-c7ccc8c(c7)n(C)c(=O)n8C7CCC(=O)NC7=O)cc5)CC6)cn4)cccc32)nn2c(C(=O)N[C@@H]3C[C@@H]3F)cnc12 (stereo partly drawn)	> 100 nM
CNc1cc(Nc2cccc(N3CCC(CN4CCN(c5ccc(-c6ccc7c(c6)n(C)c(=O)n7C6CCC(=O)NC6=O)cc5)CC4)CC3)c2OC)nn2c(C(=O)N[C@@H]3C[C@@H]3F)cnc12 (stereo partly drawn)	> 100 nM

Now examine the next entry.
Give the measured DC50 of `CNc1cc(N2CCc3c(N4CCC(CC5CC6(CCN(C(=O)c7ccc(Cl)c(N8CCC(=O)NC8=O)c7)CC6)C5)CC4)cccc32)nn2c(C(=O)N[C@@H]3C[C@@H]3F)cnc12` .
> 100 nM

###

molecular target: TYK2 (Homo sapiens); assay: TYK2 degradation MSD assay in human PBMC cells; format: cell-based; set-up: endogenous in cells; host or cells: human PBMC; details: 4 to 24 hours incubation, read-out: TYK2 MSD DC50 rating in human PBMC
Give measured DC50 for each item. Keep answers brief.

Worked examples, 2 compounds total:
COMPOUND	DC50
CNc1cc(Nc2cccn(-c3ccc(C(=O)N4CCN(CCc5ccc6c(c5)n(C)c(=O)n6C5CCC(=O)NC5=O)CC4)cn3)c2=O)nn2c(C(=O)N[C@@H]3C[C@@H]3F)cnc12 (stereo partly shown) [Example K386]	< 1 nM
CNc1cc(Nc2cccc(C3CCN(C(=O)Cc4cccc5c4n(C)c(=O)n5C4CCC(=O)NC4=O)CC3)c2)nn2c(C(=O)N[C@@H]3C[C@@H]3F)cnc12 (stereo partly shown) [Example K647]	> 100 nM

Please state DC50 for every compound in the list that follows.
1. CNc1cc(N2CCc3c(CN4CCN(c5ccc(-c6ccc7c(c6)n(C)c(=O)n7C6CCC(=O)NC6=O)cc5)CC4)cccc32)nn2c(C(=O)N[C@@H]3C[C@@H]3F)cnc12 (mixture of isomers) [Example K575]
2. CNc1cc(Nc2ccc(F)c(-c3ccc(Cc4ccc(-c5ccc6c(c5)n(C)c(=O)n6C5CCC(=O)NC5=O)cc4)cn3)c2OC)nn2c(C(=O)N[C@@H]3C[C@@H]3F)cnc12 (stereo partly shown) [Example K648]
3. CNc1cc(Nc2cccc(CN3CCC(CN4CCN(c5ccc6c(c5)n(C)c(=O)n6C5CCC(=O)NC5=O)CC4)CC3)c2)nn2c(C(=O)N[C@@H]3C[C@@H]3F)cnc12 (stereo partly shown) [Example K490]
4. CNc1cc(Nc2cccc(-c3ccc(CN4CC5(CCN(c6cccc7c6n(C)c(=O)n7C6CCC(=O)NC6=O)CC5)C4)cn3)c2)nn2c(C(=O)N[C@@H]3C[C@@H]3F)cnc12 (stereo partly shown) [Example K510]
5. CNc1cc(Nc2cccn(-c3ccc(C(=O)N4CCN(CC5CC(c6ccc(-c7ccc8c(c7)n(C)c(=O)n8C7CCC(=O)NC7=O)cc6)C5)CC4)cn3)c2=O)nn2c(C(=O)N[C@@H]3C[C@@H]3F)cnc12 (stereo partly shown) [Example K373]
6. CNc1cc(Nc2cccc(CN3CCC(OCC#Cc4cccc5c4n(C)c(=O)n5C4CCC(=O)NC4=O)CC3)c2)nn2c(C(=O)NC3CC3)cnc12 (stereo not shown) [Example K595]

> 100 nM
> 100 nM
> 100 nM
> 100 nM
> 100 nM
> 100 nM

Below are some compounds; for each one, tell me its DC50.
1. CNC(=O)c1cnc(NC(=O)NCCCCCCCCc2cccc3c2n(C)c(=O)n3C2CCC(=O)NC2=O)cc1Nc1cccc(-c2ncc(F)cn2)c1OC (stereo not shown) [Example K184]
2. CNC(=O)c1cnc(Nc2ccc(CN3CCC(N(C)c4ccc5c(c4)n(C)c(=O)n5C4CCC(=O)NC4=O)C3)cn2)cc1Nc1cccc(-c2ncc(F)cn2)c1OC (stereo not shown) [Example K164]

1. 1 to 10 nM
2. > 100 nM
